meta.source: ChEMBL document CHEMBL1131823

- systemUnderTest: Pyruvate dehydrogenase kinase (Homo sapiens, UniProt Q15119+Q15120+Q16654+Q15118)
- testDetails: In vitro inhibitory activity against pyruvate dehydrogenase kinase was determined
- Assay type: protein assay
Would you mind telling me the reported IC50 of each entry?
The reply should contain only the number, in µM.

Query (compound): C[C@]12CC/C(=N\O)C[C@H]1CC[C@@H]1[C@@H]2CC[C@]2(C)[C@@H](O)CC[C@@H]12 ; field requested: IC50
36

And what about the compound CC(C)C1=CC2=CC[C@@H]3[C@](C)(CCC[C@@]3(C)C(N)=O)[C@H]2CC1 ?
6.7

And what about the compound C[C@]12CC[C@H]3[C@@H](CCC4=CC(=O)CC[C@@H]43)[C@@H]1CC[C@@H]2O [NANDROLONE] ?
120
